# experiment.summary: Particle size and PDI by dynamic light scattering (Malvern Zetasizer)
# Type: physicochemical
# recorded.conditions: lipid/no neutral lipid/CHOL/GM-020 NOF 60/0/36/4, N/P 3
PDI values, listed per item
readout: PDI

| compound | readout | meas.value |
| --- | --- | --- |
| CCCCCCCC/C=C\CCCCCCCCOCC(CN1CCC(OC)C1)OCCO[C@H]1CC[C@@]2(C)C(=CC[C@H]3[C@@H]4CC[C@H]([C@H](C)CCCC(C)C)[C@@]4(C)CC[C@@H]32)C1 (stereo partly shown) | PDI | 0.125 |
| CCCCCCCC/C=C\CCCCCCCCOCC(CN1CCCCC1)OCCOCCO[C@H]1CC[C@@]2(C)C(=CC[C@H]3[C@@H]4CC[C@H]([C@H](C)CCCC(C)C)[C@@]4(C)CC[C@@H]32)C1 (stereo partly shown) | PDI | 0.09 |
| CCCCC/C=C\C/C=C\CCCCCCCCOCC(CN1CCCCC1)OCCO[C@H]1CC[C@@]2(C)C(=CC[C@H]3[C@@H]4CC[C@H]([C@H](C)CCCC(C)C)[C@@]4(C)CC[C@@H]32)C1 (stereo partly shown) | PDI | 0.143 |
| CCCCC/C=C\C/C=C\CCCCCCCCOCC(CN1CCCC1C)OCCOCCOCCOCCO[C@H]1CC[C@@]2(C)C(=CC[C@H]3[C@@H]4CC[C@H]([C@H](C)CCCC(C)C)[C@@]4(C)CC[C@@H]32)C1 (stereo partly shown) | PDI | 0.1 |

Recorded values, source patent US9301923B2.
